Listed here are molecules together with their documented log reduction at 0.06 % strength.
tested on: Salmonella enterica ATCC 10708; test: BCT test (bacterial contact time), 60 s, log reduction / effect fraction; CI by Compusyn; format: cell-based; details: Salmonella enterica, ATCC10708, 1 min, Dose 0.06 % w/v; BCT 60 s; in 25% EtOH
ATTRIBUTE MEASURED: log reduction at 0.06 % strength

MOLECULE	ATTRIBUTE MEASURED	RECORDED MEASUREMENT
CC(C)=CCC/C(C)=C\CO [Nerol, (Z)-3,7-dimethyl-2,6-octadien-1-ol]	log reduction at 0.06 % strength	7.3
C/C=C/c1ccc(O)c(OC)c1	log reduction at 0.06 % strength	0
CCCCCCC1CCC(=O)O1 (stereo not shown)	log reduction at 0.06 % strength	1.3
C=C(C)[C@@H]1CC=C(CO)CC1	log reduction at 0.06 % strength	0.9
